Collected IC50 for Lysine-specific demethylase 5B (Homo sapiens, UniProt Q9UGL1) across several studies; compounds listed below.

Ask | Find the recorded IC50 belonging to c1ccc2c(c1)CCCC2Cn1cnc(-c2cc(-c3nn[nH]n3)ccn2)c1 (stereo not drawn) and report it.
Reply | 0.1 to 1 µM

Ask | Queued: CCNC(=O)C[C@@H]1CCN(Cc2cc(C(=O)O)ccn2)C1
Reply | 0.25 to 2.5 µM

Ask | Now consider O=C(O)c1ccncc1Nc1nn(CC(O)C(F)(F)F)c2ccc(F)cc12 (stereo not drawn) .
Reply | < 0.1 µM

Ask | Next entry: N#CCC(=O)N1CCC[C@H](n2cc(Oc3nc(O)c4ccncc4n3)cn2)C1
Reply | ≤ 0.1 µM

Ask | Try this compound too: Clc1ccccc1Cn1cnc(-c2cc(-c3nn[nH]n3)ccn2)c1
Reply | ≤ 0.1 µM

Ask | Would you kindly repeat that for O=C(O)c1c(NCc2ccc(C(F)(F)F)c(F)c2)ccc2nccn12 ?
Reply | > 1 µM

Ask | Queued: N#CCC(=O)N1CC[C@@H](n2cc(Oc3nc(O)c4ccncc4n3)cn2)C1
Reply | ≤ 0.1 µM

Ask | Another compound: Oc1nc(OCc2ccc3ccccc3c2)nc2cnccc12
Reply | 1 to 10 µM

Ask | Then this compound: NC(=O)CCN(CC(=O)N1CCCCC1)Cc1cc(C(=O)O)ccn1
Reply | < 0.25 µM
